The measurements presented in this section are drawn from paper PMC8330735.

Test system: carrageenan-induced rat paw oedema
Assay: Carrageenan-induced rat paw oedema test
Format: in vivo
Conditions: from area under the curve of all time points, compounds and celecoxib 50 mg/kg, ibuprofen and indomethacin 20 mg/kg
# maps each entry to its Average oedema inhibition%
Mention the unit after the number when you answer.

// solved cases for Average oedema inhibition% follow
compound: CC(C)Cc1ccc(C(C)C(=O)NN2C(=O)c3ccccc3N(C)C2c2ccc([N+](=O)[O-])cc2)cc1 (centres unmarked) [7c]
readout-type: Average oedema inhibition%
measured-result: 45.37%
--
compound: COc1ccc2c(c1)c(CC(=O)O)c(C)n2C(=O)c1ccc(Cl)cc1 [Indomethacin, reference compound]
readout-type: Average oedema inhibition%
measured-result: 33.81%

QUERY: Which value of Average oedema inhibition% has been reported for CN1c2ccccc2C(=O)N(NC(=O)Cc2c[nH]c3ccccc23)C1c1ccc([N+](=O)[O-])cc1 (centres unmarked) [4b] in the records?
RESULT: 49.47%

QUERY: Value lookup for Average oedema inhibition%; key = NNC(=O)CSc1nc2ccccc2c(=O)n1NC(=O)Cc1ccccc1 [13b]
RESULT: 45.49%

QUERY: Any idea what Average oedema inhibition% was measured for CC(C)Cc1ccc(C(C)C(=O)O)cc1 (centres unmarked) [Ibuprofen, reference compound] ?
RESULT: 47.18%

QUERY: Given the entry Cc1ccc(-c2cc(C(F)(F)F)nn2-c2ccc(S(N)(=O)=O)cc2)cc1 [Celecoxib, reference compound] , report its measured Average oedema inhibition%.
RESULT: 47.60%

QUERY: Need Average oedema inhibition% of O=C(CSc1nc2ccccc2c(=O)n1NC(=O)Cc1ccccc1)NNC(=O)c1ccccc1 [14c] , thanks.
RESULT: 31.86%

QUERY: Which Average oedema inhibition% is listed for CN1c2ccccc2C(=O)N(NC(=O)Cc2c[nH]c3ccccc23)C1c1ccc(Cl)cc1 (centres unmarked) [4a] ?
RESULT: 33.40%

----------
Target: human recombinant COX-2 (Homo sapiens, UniProt P35354)
Sequence (P35354 18-604): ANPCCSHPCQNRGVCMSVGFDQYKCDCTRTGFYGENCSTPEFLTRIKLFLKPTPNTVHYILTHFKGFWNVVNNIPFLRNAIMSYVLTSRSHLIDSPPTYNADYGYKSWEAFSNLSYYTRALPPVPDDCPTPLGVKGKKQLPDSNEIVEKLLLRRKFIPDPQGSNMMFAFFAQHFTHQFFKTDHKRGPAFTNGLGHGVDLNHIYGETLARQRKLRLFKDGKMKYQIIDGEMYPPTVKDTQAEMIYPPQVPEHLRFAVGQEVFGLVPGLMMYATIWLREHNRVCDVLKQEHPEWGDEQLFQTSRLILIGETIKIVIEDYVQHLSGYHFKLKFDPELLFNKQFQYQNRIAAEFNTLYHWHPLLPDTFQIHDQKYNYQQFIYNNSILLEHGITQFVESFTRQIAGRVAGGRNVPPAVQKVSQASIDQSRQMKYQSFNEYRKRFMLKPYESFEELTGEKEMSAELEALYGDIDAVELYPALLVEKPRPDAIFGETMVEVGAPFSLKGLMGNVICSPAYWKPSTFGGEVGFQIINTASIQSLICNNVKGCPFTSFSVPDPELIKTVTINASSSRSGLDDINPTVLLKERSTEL
Test: In vitro COX-2 inhibitory assay (colorimetric Cayman kit)
Conditions: COX-1 IC50/COX-2 IC50
Property: Selectivity Index (SI); scope: individual compounds
Respond numerically, and do not add a unit to the figure.

QUERY: Name the reported Selectivity Index (SI) value associated with the compound CC(C)Cc1ccc(C(C)C(=O)NN2C(=O)c3ccccc3N(C)C2c2ccc(Cl)cc2)cc1 (stereo not drawn)
RESULT: 333.75
